- Assay name: inhibitors of E-selectin induction by TNFa, primary screen, imaging, HUVEC, immunofluorescence, MLSMR starter and 10KST1 sets (AID 487);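 for inhibition: signal is fraction of cell area covered by stained E-selectin grains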
- Condition: HUVEC TNFalpha-induced E-selectin immunofluorescence imaging, at 2 µM; stronger effect = higher value
Entries and their inhibition values follow.
Property: inhibition (%)

{"Compound": "Cc1c(C#N)c2ccccc2n1CC(=O)N1CCc2ccccc2C1", "Value": 11.5}
{"Compound": "COC(=O)C(NC(=O)c1ccc(F)cc1)(Nc1nc(C)cs1)C(F)(F)F (stereo not drawn)", "Value": -18.4}
{"Compound": "COc1ccc(S(=O)(=O)N2CCCC2C(=O)Nc2ccc(C)cc2)cc1 (stereo not drawn)", "Value": -11.9}
{"Compound": "CCOC(=O)c1ccc(N2C(=O)CC(N(C)CCc3ccc(OC)c(OC)c3)C2=O)cc1 (stereo not drawn)", "Value": -20.7}
{"Compound": "CCOCCCNC(=O)C1CCCN(S(=O)(=O)CC)C1 (stereo not drawn)", "Value": -3.3}
{"Compound": "C=CCN1C(=O)C2(/C(=C(\\O)c3ccc4c(c3)OCCO4)C(=O)C(=O)N2CCCOC)c2ccccc21 (stereo not drawn)", "Value": -37.2}
{"Compound": "Cc1cccc(-c2nnc3n2N=C(c2ccccc2)CS3)c1", "Value": -55.5}
{"Compound": "COc1ccc(CNc2oc(COc3ccc(Cl)cc3)nc2C#N)cc1", "Value": -33.3}
{"Compound": "CC(C)N1C(=O)C2C(C(=O)NC3CCCCC3)C3C=CC2(O3)C1C(=O)NC1CCCC1 (stereo not drawn)", "Value": -58.1}
{"Compound": "O=C(NCc1cccs1)C1CC(=O)N(C2CCCC2)C1 (stereo not drawn)", "Value": -121}
{"Compound": "O=C(CSc1ncccn1)NCc1ccccc1", "Value": 36.4}
{"Compound": "O=C1N=C(N2CCOCC2)CS1", "Value": 36}
{"Compound": "Cc1cccnc1-n1c(CCN2C(=O)c3ccccc3C2=O)nc2ccccc2c1=O", "Value": -12.9}
{"Compound": "CCOC(=O)N1CCC(NC(=O)CS(=O)(=O)Cc2nc(-c3ccccc3C)oc2C)CC1", "Value": -66.8}
{"Compound": "O=C1NC(=O)C(c2cn(-c3ccccc3)nc2-c2ccc(F)cc2)N1 (stereo not drawn)", "Value": -12.6}
{"Compound": "CCOC(=O)C1C2C=CC3(CN(Cc4ccco4)C(=O)C13)O2 (stereo not drawn)", "Value": -57.8}
{"Compound": "CCCCCOc1ccccc1C(=O)NCCCC(=O)O", "Value": -57.4}
{"Compound": "Cc1cccc2cc(C#N)c(SCCN3CCCCC3)nc12", "Value": -46.6}
{"Compound": "COc1ccc2c(c1)c(C(=O)CN1CCOCC1)c(C)n2C", "Value": 57.3}
{"Compound": "CN1CC2(C)CN(C(c3ccccc3)c3ccccc3)CC(C)(C1)C2O (stereo not drawn)", "Value": -136}
{"Compound": "COc1ccc(CCn2c(C)cc(C(=O)CSc3nnnn3C)c2C)cc1", "Value": -45.2}
{"Compound": "CC(=O)NCCOc1cccc(OCCNC(C)=O)c1", "Value": -22.5}
{"Compound": "COc1ccccc1C(=O)N1CCN=C1SCc1cccnc1", "Value": 0.7}

====

- Assayed system: Voltage-gated potassium channel subunit beta-2 (Rattus norvegicus) (UniProt P62483)
- Sequence (P62483 whole entry, looked up): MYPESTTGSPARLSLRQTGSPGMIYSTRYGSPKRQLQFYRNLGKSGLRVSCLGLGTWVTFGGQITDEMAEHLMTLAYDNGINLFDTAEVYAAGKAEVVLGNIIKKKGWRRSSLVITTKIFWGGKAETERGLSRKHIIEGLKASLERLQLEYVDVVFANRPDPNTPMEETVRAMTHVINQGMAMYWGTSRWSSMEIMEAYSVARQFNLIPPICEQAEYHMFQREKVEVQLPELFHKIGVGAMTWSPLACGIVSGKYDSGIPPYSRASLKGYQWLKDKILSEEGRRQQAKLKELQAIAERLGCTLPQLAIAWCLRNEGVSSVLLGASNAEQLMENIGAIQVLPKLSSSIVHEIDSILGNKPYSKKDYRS
- Assay name: KvBeta enzyme negative modulators, primary screen, biochemical, NADPH fluorescence (AID 622);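 note: slope of raw intensity against log time taken from 70 to 1610 s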
- Condition: recombinant KvBeta, 4-cyanobenzaldehyde reduction, at 10 µM, stronger effect = higher value
# fluorescence slope >= -0.5 gives Yes, anything below gives No

{"Compound": "COc1ccc(C2C(C(=O)NCCN3CCOCC3)c3ccccc3C(=O)N2C2CCCCC2)cc1 (stereo not given)", "Assayed system": "Voltage-gated potassium channel subunit beta-2 (Rattus norvegicus) (UniProt P62483)", "Label": "No"}
{"Compound": "CCC(C(=O)O)n1c(C(F)(F)F)nc2ccccc21 (stereo not given)", "Assayed system": "Voltage-gated potassium channel subunit beta-2 (Rattus norvegicus) (UniProt P62483)", "Label": "No"}
{"Compound": "COc1ccc(CN2C(=O)[C@@H]3C(c4ccc(F)cc4)=NO[C@@H]3C2=O)cc1", "Assayed system": "Voltage-gated potassium channel subunit beta-2 (Rattus norvegicus) (UniProt P62483)", "Label": "Yes"}
{"Compound": "O=C(c1ccc2c(c1)[nH]c(=S)n1c3ccccc3nc21)N1CCN(c2ncccn2)CC1", "Assayed system": "Voltage-gated potassium channel subunit beta-2 (Rattus norvegicus) (UniProt P62483)", "Label": "Yes"}
{"Compound": "CN1CCN(c2c3c(c(C#N)c4nc5ccccc5n24)CCCC3)CC1", "Assayed system": "Voltage-gated potassium channel subunit beta-2 (Rattus norvegicus) (UniProt P62483)", "Label": "Yes"}
{"Compound": "Cc1ccc(C)c(NC(=O)c2ccc3c(c2)N(Cc2ccc(F)cc2)C(=O)CS3=O)c1 (stereo not given)", "Assayed system": "Voltage-gated potassium channel subunit beta-2 (Rattus norvegicus) (UniProt P62483)", "Label": "No"}
{"Compound": "O=C(C/C(=N/O)c1ccccc1O)C(F)F", "Assayed system": "Voltage-gated potassium channel subunit beta-2 (Rattus norvegicus) (UniProt P62483)", "Label": "Yes"}
{"Compound": "O=C1c2ccccc2C(=O)N1CNc1ccccc1", "Assayed system": "Voltage-gated potassium channel subunit beta-2 (Rattus norvegicus) (UniProt P62483)", "Label": "No"}
{"Compound": "CCOC(=O)c1ccc(Oc2cc(C)nc(SC)n2)cc1", "Assayed system": "Voltage-gated potassium channel subunit beta-2 (Rattus norvegicus) (UniProt P62483)", "Label": "Yes"}
{"Compound": "COc1ccccc1C1/C(=C(/O)c2ccc(OC(C)C)cc2)C(=O)C(=O)N1c1cc(C)on1 (stereo not given)", "Assayed system": "Voltage-gated potassium channel subunit beta-2 (Rattus norvegicus) (UniProt P62483)", "Label": "Yes"}

====

- Assay name: inhibitors of E-selectin induction by TNFa, primary screen, imaging, HUVEC, immunofluorescence, MLSMR starter and 10KST1 sets (AID 487);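 for nuclei count: 100% = median nuclei count of all wells on the same plate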
- Condition: HUVEC TNFalpha-induced E-selectin immunofluorescence imaging, at 2 µM; measured here: cell number, toxicity
Entries and their nuclei count values follow.
Property: nuclei count (%)

{"Compound": "Cc1ccc(CNc2oc(COc3ccccc3Cl)nc2C#N)cc1", "Property": "nuclei count", "Endpoint unit": "%", "Value": 82.6}
{"Compound": "CN(C)CCNC(=O)C12CC3(C)CC(C)(CC(C)(C3)C1)C2", "Property": "nuclei count", "Endpoint unit": "%", "Value": 118}
{"Compound": "CCc1nc(NCC2CCCO2)c(C#N)c2c1COC(C)(C)C2 (stereo unspecified)", "Property": "nuclei count", "Endpoint unit": "%", "Value": 127}
{"Compound": "O=C(NCCN1CCOCC1)NC1(C(F)(F)F)Oc2ccc(Cl)cc2O1 (stereo unspecified)", "Property": "nuclei count", "Endpoint unit": "%", "Value": 118}
{"Compound": "COc1cc2c(cc1NC(=O)COC(=O)Cn1cnc3ccccc31)oc1ccccc12", "Property": "nuclei count", "Endpoint unit": "%", "Value": 110}
{"Compound": "O=C(O)C1CC(=O)n2c(nc3ccccc32)S1 (stereo unspecified)", "Property": "nuclei count", "Endpoint unit": "%", "Value": 119}
{"Compound": "Cc1cc(/C=N/n2cnnc2)c(C)n1-c1ccc2c(c1)OCO2", "Property": "nuclei count", "Endpoint unit": "%", "Value": 97.4}
{"Compound": "COc1ccc(CN(C)CCc2ccccn2)c(OC)c1OC", "Property": "nuclei count", "Endpoint unit": "%", "Value": 151}
{"Compound": "Cn1c(SCC(=O)Nc2ccc3c(c2)OCO3)nnc1-c1cnccn1", "Property": "nuclei count", "Endpoint unit": "%", "Value": 91.7}
{"Compound": "COC(=O)CN(c1ccc(C)c(Cl)c1)S(C)(=O)=O", "Property": "nuclei count", "Endpoint unit": "%", "Value": 110}
{"Compound": "CCSc1nnc(NC(=O)C(C)(C(F)(F)F)C(F)(F)F)s1", "Property": "nuclei count", "Endpoint unit": "%", "Value": 183}

====

- Assayed system: Muscarinic acetylcholine receptor M4 (Homo sapiens) (UniProt P08173)
- Sequence (P08173 whole entry, looked up): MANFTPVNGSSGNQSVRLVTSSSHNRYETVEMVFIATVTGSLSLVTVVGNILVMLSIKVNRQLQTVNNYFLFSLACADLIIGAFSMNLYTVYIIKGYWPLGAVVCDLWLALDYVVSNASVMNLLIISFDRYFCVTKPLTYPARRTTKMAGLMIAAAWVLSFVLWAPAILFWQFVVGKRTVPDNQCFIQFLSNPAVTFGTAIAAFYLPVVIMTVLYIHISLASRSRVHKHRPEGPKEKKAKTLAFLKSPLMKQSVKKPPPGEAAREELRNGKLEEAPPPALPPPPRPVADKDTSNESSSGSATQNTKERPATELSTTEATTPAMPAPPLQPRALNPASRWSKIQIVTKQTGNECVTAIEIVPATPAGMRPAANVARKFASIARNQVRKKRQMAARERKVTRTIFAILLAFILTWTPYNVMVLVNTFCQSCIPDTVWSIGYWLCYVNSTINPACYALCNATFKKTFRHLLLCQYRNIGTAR
- Assay name: compounds altering M4/GIRK thallium flux, either direction, primary screen, M4 allosteric agonist project, cell-based, HEK293 M4/GIRK, BTC-AM (AID 625);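 note: thallium influx through GIRK channels coupled to M4 in HEK293 cells with BTC-AM dye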
- Condition: at 10 µM, actives lie on both sides
Property: fluorescence slope

{"Compound": "CSc1nc2[nH]c3c(c2c2nncn12)CC(C)(C)OC3", "Value": 0.00422}
{"Compound": "CCC1(C)Cc2c(sc(NC(=O)CCC(=O)O)c2C#N)CO1 (centres undefined)", "Value": 0.00482}
{"Compound": "CCCC(=O)Nc1nn(CCC)c2nc3ccccc3cc12", "Value": 0.00673}
{"Compound": "COc1ccccc1C1/C(=C(\\O)c2ccc3c(c2)OCCO3)C(=O)C(=O)N1CCCN(C)C (centres undefined)", "Value": 0.00501}
{"Compound": "Fc1ccc2[nH]c3c(N4CCSCC4)ncnc3c2c1", "Value": 0.00396}
{"Compound": "Cc1nn(CCO)c2c1C(=O)CCC2", "Value": 0.00488}
{"Compound": "Cc1nnc2n(C3CCCCC3)c(=O)c3c4c(sc3n12)COC(C)(C)C4", "Value": 0.00567}
{"Compound": "COc1ccc(-n2ncc3c(N4CCC(C(N)=O)CC4)ncnc32)cc1", "Value": 0.00675}
{"Compound": "COC(=O)c1ccccc1NC(=O)C1COc2ccccc2O1 (centres undefined)", "Value": 0.00637}

Sourced from PubChem BioAssay
